system: VchCAST RNA-guided transposition machinery (E. coli BL21(DE3) host, lacZ target); assay: relative integration efficiency (T-LR orientation) vs wild-type transposon end (log2 (normalized fold change)); transposon end mutated: right end (5 bp flank + 75 bp right end); higher = more efficient transposition
Mark N for relative integration efficiency (log2) values under 0.3, and Y for everything at or above.

Exam item: decide whether the reported relative integration efficiency (log2) for `ACATTTGTTGATACACCCATAAATTGATAATTACACCCATAAATTGATATTGCTCACACCCATAAATTGATATTGCCTCTGATCATAGTCAGACCAACATTGCTACGACCCGTATTCGCACCGACAC` is at least 0.3.
Y

Exam item: decide whether the reported relative integration efficiency (log2) for `ACATTTGTTGATACAAAACGCCCCGTCGCCGGCACAAACGCCCGGTCGCCGGCGACACAAACGCCCGGTCGCGGTAAGAGGATCATAGTCAGACCAACATTGCTACGACCCGTATTCGCACCGACAC` is at least 0.3.
N

Exam item: decide whether the reported relative integration efficiency (log2) for `ACATTTGTTGATACAACCATAACCGTATAATTACACCCATAAATTGATAATTATCACACCCATAAATTGATATTGCCTCTGATCATAGTCAGACCAACATTGCTACGACCCGTATTCGCACCGACAC` is at least 0.3.
N

Exam item: decide whether the reported relative integration efficiency (log2) for `ACATTTGTTGATACAACCATATATTGATATCTCCAACCATAAGTTGATATTTTTCACACCCATAAATTGATAATTACTCTGATCATAGTCAGACCAACATTGCTACGACCCGTATTCGCACCGACAC` is at least 0.3.
N

Exam item: decide whether the reported relative integration efficiency (log2) for `ACATTTGTTGATACAACCATAAAATGATAATTACACCCATAAATTGATCCGGATCACACCCATAAATTGATATTGCCTCTGATCATAGTCAGACCAACATTGCTACGACCCGTATTCGCACCGACAC` is at least 0.3.
N

Next:
Exam item: decide whether the reported relative integration efficiency (log2) for `ACATTTGTTGATACAACCATAAAAGGATCATTACACCCATCAATTGATAATTATCACACCCAATTTAACTATAACGCTCTGATCATAGTCAGACCAACATTGCTACGACCCGTATTCGCACCGACAC` is at least 0.3.
N

Exam item: decide whether the reported relative integration efficiency (log2) for `ACATTTGTTGATACAACCATAAAATGATAATTACACCCATAAATTGATAATTATACACCCCATAAATTGATATTGCCTCTGATCATAGTCAGACCAACATTGCTACGACCCGTATTCGCACCGACAC` is at least 0.3.
Y

Exam item: decide whether the reported relative integration efficiency (log2) for `ACATTTGTGGATCCAACCATAAAATGATAATTACACCCATAAATTGATAATTATCACACCCAATTTAACTATAACGCTCTGATCATAGTCAGACCAACATTGCTACGACCCGTATTCGCACCGACAC` is at least 0.3.
Y

Exam item: decide whether the reported relative integration efficiency (log2) for `ACATTTGTTGATACAACCATTAAATGATAATTCCACCCCTAAATTGATAATTATCACACCCAATTTAACTATAACGCTCTGATCATAGTCAGACCAACATTGCTACGACCCGTATTCGCACCGACAC` is at least 0.3.
N

Exam item: decide whether the reported relative integration efficiency (log2) for `ACATTTGTTGATACAACCATAAAATGATAATTACTCTGATCATAGTCAGACCAACATTGCTACGACCCGTATTCGCACCGACACACCCATAAATTGATAATTATCAGTGGGTATTTAACTATAACGC` is at least 0.3.
Y

Exam item: decide whether the reported relative integration efficiency (log2) for `ACATTTGTTGATACAACCATCAAATGATAATTCCACCCATACATTGATAATTATCACACCCAATTTAACTATAACGCTCTGATCATAGTCAGACCAACATTGCTACGACCCGTATTCGCACCGACAC` is at least 0.3.
N
